experiment: chemical genetic growth profiling, strain panel (AID 1159580);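 note: tested at 20 µM; growth read once vehicle control cultures reached saturation at 30 °C; 1 = growth at the plate median or of vehicle wells; lower values mean less growth of the strain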; conditions: S. cerevisiae deletion strains, growth OD, locus YOR144C, strain elg1
About 2,000 (36%) of roughly 5,500 compounds were called active. Roughly 18% stayed inconclusive and do not appear here. Cut-off read from the data, not from the text of the source: active = normalized growth mostly below about 0.91 (no sharp cut-off); inconclusive = no clear call, values can overlap the other calls; inactive = mostly above about 0.92. The list shows a part of the results.
Respond using exactly one of the listed classes: YES (active), NO (inactive)

So what was the verdict on NC(C(=O)O)C(O)C(=O)O (stereo not given) in this test?
NO

====

assay: chemical genetic growth profiling, strain panel (AID 1159580); settings: S. cerevisiae deletion strains, growth OD, locus YHR079C, strain IRE1 (second series), hits give low values
Screen size: about 5,500 compounds; about 2,000 (36%) were called active. Inconclusive results (about 18%) are left out. The list shows a part of the results.
MEASURED ENDPOINT: normalized growth
# output: bare number, no unit

> print(dat)
                                   compound  measured.endpoint  measured.number
1                 CN(C)C(=O)Oc1ccc[n+](C)c1  normalized growth             1.01
2  COC(=O)[C@@H]1OC(=O)C2OC23[C@@]1(C)CCC1[C@@]2(C)CCC(=O)C(C)(C)C2C[C@@H](OC(C)=O)[C@]13C (stereo partly specified)  normalized growth            0.995
3  C[C@]12CCC3c4ccc(OC(=O)c5ccccc5)cc4CCC3C1CCC2=O (stereo partly specified)  normalized growth            0.997

Kindly indicate its recorded normalized growth. Item: O=c1[nH]c(=O)n(C2C[C@H](O)[C@@H](CO)O2)cc1C(F)(F)F (stereo partly specified)
0.974

====

experiment: chemical genetic growth profiling, strain panel (AID 1159580); settings: S. cerevisiae deletion strains, growth OD, locus YDR195W, strain ref2
Hit rate of the full screen: of about 5,500 compounds, about 2,000 (36%) were called active. Roughly 18% stayed inconclusive and do not appear here. Rule as the data show it: active = normalized growth mostly below about 0.91 (no sharp cut-off); inconclusive = no clear call, values can overlap the other calls; inactive = mostly above about 0.92. The list shows a part of the results.
Respond using exactly one of the listed classes: yes (1) = active, no (0) = inactive

COMPOUND	CAT
COc1c(C)c2c(c(O)c1C/C=C(\C)CCC(=O)O)C(=O)OC2	no (0)

So what was the verdict on O=C(O)C1CCCNC1 (configuration not stated) in this test?
no (0)

So what was the verdict on C[C@]12CCC3c4ccc(O)cc4CCC3C1CCC2=O (some centres not stated) in this test?
yes (1)

So what was the verdict on O=C(O)CCCCCCCC(=O)O in this test?
no (0)

So what was the verdict on COC(=O)[C@@H]1OC(=O)C2OC23[C@@]1(C)CCC1[C@]2(C)C(C[C@@H](O)[C@]13C)C(C)(C)[C@H](OC(C)=O)C[C@@H]2OC(C)=O (some centres not stated) in this test?
no (0)

So what was the verdict on O=C(O)COc1ccc(Cl)cc1Cl in this test?
no (0)

====

assay: chemical genetic growth profiling, strain panel (AID 1159580); settings: S. cerevisiae deletion strains, growth OD, locus YJL187C, strain SWE1, hits give low values
The whole screen tested about 5,500 compounds, of which about 2,000 (36%) were called active. Not shown: some 18% with an inconclusive outcome. The list shows a part of the results.
Measured normalized growth accompanies every entry in the list below.
# output: bare number, no unit

> print(dat)
                                   compound  measured.number
1        COc1cc(C)c2c(=O)cc(-c3ccccc3)oc2c1            0.933
2  O=C(Nc1cc(C(F)(F)F)cc(C(F)(F)F)c1)C(c1ccccc1)C1CCCC1 (centres undefined)             1.02
3  NC(=O)NC1NC(=O)NC1=O (centres undefined)                1

Kindly indicate its recorded normalized growth. Item: O=NN(CCCl)C(=O)NCCCl
0.944

====

test: chemical genetic growth profiling, strain panel (AID 1159580);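 note: tested at 20 µM; growth read once vehicle control cultures reached saturation at 30 °C; 1 = growth at the plate median or of vehicle wells; lower values mean less growth of the strain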; conditions: S. cerevisiae deletion strains, growth OD, locus YDR318W, strain mcm21, hits give low values
Hit rate of the full screen: of about 5,500 compounds, about 2,000 (36%) were called active. Roughly 18% stayed inconclusive and do not appear here. The list shows a part of the results. Where a SMILES comes first, the peptide text is derived from it.
Measured normalized growth accompanies every entry in the list below.
# output: bare number, no unit

Consider the reported normalized growth for these compounds:
COMPOUND	MEASURED NUMBER
CC(=O)O[C@H]1C[C@@H](OC(C)=O)C(C)(C)C2C[C@@H](O)[C@]3(C)C(CC[C@@]4(C)[C@H](c5ccoc5)OC(=O)[C@H]5O[C@]543)[C@]21C (stereo partly drawn)	0.982
COc1ccc(-c2cc(=O)c3c(OC)cc(OC)cc3o2)cc1	0.973
COC[C@]12CN(C=O)C3[C@@H]4[C@H](OC)C1[C@]3(C1CC3(O)C(OC)C(O)C4(OC(C)=O)C1C3OC(=O)c1ccccc1)[C@@H](OC)C[C@H]2O (stereo partly drawn)	1.01
c1ccc2c(CC3=NCCN3)cccc2c1	1.02
CC(=O)OCC(=O)[C@@]1(O)CCC2C3CCC4=CC(=O)C=CC4(C)C3[C@@H](O)C[C@@]21C (stereo partly drawn)	1.03
COc1cc2c(cc1OC)C1(O)C(=O)c3ccc(O)c(C(=O)O)c3OC1CO2 (stereo not drawn)	0.986
Cc1cc(/C=C/c2ccc3cc(N(C)C)ccc3[n+]2C)c(C)n1-c1ccccc1	0.946
NCCCNCCSP(=O)(O)O	0.986
O=C(O)COc1ccc(Cl)cc1Cl	1.03
CC(=O)N[C@@H](CC(=O)O)C(=O)N[C@@H](CCC(=O)O)C(=O)O (Ac-Asp-Glu-OH)	0.981

Kindly indicate its recorded normalized growth. Item: COc1cc(C)c2c(=O)cc(-c3ccccc3)oc2c1
0.968

Kindly indicate its recorded normalized growth. Item: NC1(C(=O)O)CCCC1
0.996

Kindly indicate its recorded normalized growth. Item: NC1(C(=O)O)CC1
1.03

====

experiment: chemical genetic growth profiling, strain panel (AID 1159580);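 note: tested at 20 µM; growth read once vehicle control cultures reached saturation at 30 °C; 1 = growth at the plate median or of vehicle wells; lower values mean less growth of the strain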; conditions: S. cerevisiae deletion strains, growth OD, locus YMR277W, strain FCP1, hits give low values
The campaign covered roughly 5,500 compounds. About 2,000 (36%) were called active. Another 18% or so got no clear call; they are omitted. The list shows a part of the results.
MEASURED ENDPOINT: normalized growth
# output: bare number, no unit

> print(dat)
                                   molecule  measured.endpoint  measured.number
1  Cc1ccc(NC(=S)C(C#N)C(=O)N2CCOCC2)c(C)c1 (stereo not drawn)  normalized growth            0.989
2  COc1ccc(Nc2nc(NC(=O)Nc3ccc(Cl)cc3)n[nH]2)cc1  normalized growth            0.991
3  N/C(=N/O)c1ccc(Oc2ccc(C3SCCS3)cc2)c([N+](=O)[O-])c1  normalized growth            0.995

Kindly indicate its recorded normalized growth. Item: Clc1ccc(CSc2nccn2-c2cc(Cl)ccc2Cl)cc1
0.958

Kindly indicate its recorded normalized growth. Item: O=[N+]([O-])c1ccsc1Oc1cccc(C(F)(F)F)c1
0.94

====

assay: chemical genetic growth profiling, strain panel (AID 1159580);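 note: tested at 20 µM; growth read once vehicle control cultures reached saturation at 30 °C; 1 = growth at the plate median or of vehicle wells; lower values mean less growth of the strain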; conditions: S. cerevisiae deletion strains, growth OD, locus YKL190W, strain CNB1, hits give low values
Hit rate of the full screen: of about 5,500 compounds, about 2,000 (36%) were called active. Inconclusive results (about 18%) are left out. The list shows a part of the results. Where a SMILES comes first, the peptide text is derived from it.
MEASURED ENDPOINT: normalized growth
# output: bare number, no unit

COMPOUND	MEASURED NUMBER
CCN1CN=C(SCc2ccc(Br)cc2)NC1	1.02
CC12CCC3C(=CCc4cc(O)ccc43)C1CCC2=O (centres undefined)	0.977
O=C(O)C(O)C(O)C(=O)O (centres undefined)	0.978
CCCCCCCCCCCC(=O)OCC(COP(=O)(O)OCC(O)COP(=O)(O)OCC(COC(=O)CCCCCCCCCCC)OC(=O)CCCCCCCCCCC)OC(=O)CCCCCCCCCCC (centres undefined)	0.682
COC1=CC(=O)OC(CCc2ccc(OC)c(OC)c2)C1 (centres undefined)	1.01
CC(=O)O[C@@H]1CC2C(C)(C)C(=O)C3OC3[C@]2(C)C2CC[C@@]3(C)[C@H](c4ccoc4)OC(=O)C4OC43[C@@]21C (some centres undefined)	1.01
FC(F)(F)Oc1ccccc1-c1nnc(-c2ccc(Cl)cc2)o1	0.9
CC(=O)N[C@@H](CC(=O)O)C(=O)N[C@@H](CCC(=O)O)C(=O)O (Ac-Asp-Glu-OH)	1.02
N[C@@H](C(=O)O)[C@@H](O)[C@H](O)[C@H](O)CO	1.01
OCc1nccn1Cc1ccc(Cl)cc1	0.999

Then there is this compound:
Kindly indicate its recorded normalized growth. Item: CC(=O)O[C@H]1C[C@@H](OC(C)=O)C(C)(C)C2C[C@@H](O)[C@]3(C)C(CC[C@@]4(C)[C@H](c5ccoc5)OC(=O)[C@H]5O[C@]543)[C@]21C (some centres undefined)
0.996
